test system: K-562 leukemia; assay: NCI tumour cell line growth inhibition, 48 h
endpoint: TGI

Check out these entries, answers already filled in.
compound="O=c1c2ncn(C3CCCCO3)c2n(-c2ccccc2)c(=S)n1-c1ccccc1 (stereo not drawn)" data_value="> 100 µM"
compound=c1cc2c(cc1C(N1CCNCC1)N1CCNCC1)OCO2 data_value="5.6 µM"
compound=O=C1C=C(N2CCCC2)C(=O)c2c(O)ccc(O)c21 data_value="> 10 µM"
compound="Fc1ccc(C2NC(=S)NC3=C2CCOc2c3ccc3ccccc23)cc1 (stereo not drawn)" data_value="> 100 µM"
compound=N#CCN1CCCCCc2ccccc21 data_value="> 100 µM"

IN: Fill in: TGI of COc1ccc(-c2cc(C3CC3)nc(SCC(=O)O)c2C#N)cc1 is ___
OUT: > 100 µM

From: PubChem BioAssay (NCI)
